Assay: Tmax in monkey at 3 mg/kg, po by LC-MS/MS analysis
Format: ADME, organism-based, Macaca mulatta
Design: dose 3 mg/kg, route oral
Conditions: rhesus monkey, in vivo
property.label: Tmax (h)
Please reply with the bare figure in h and do not write the unit itself.

Summary for this compound, COCCCS(=O)(=O)c1ccc(-c2ccc(CCN3CCC[C@H]3C)cc2)cc1 : Tmax is 2.3

* * *

Experiment: Half life in Sprague-Dawley rat at 1 mg/kg, iv by LC-MS/MS analysis
Type: ADME, organism-based
Design: dose 1 mg/kg, route intravenous
Details: in vivo
property.label: half-life (h)
Please reply with the bare figure in h and do not write the unit itself.

Summary for this molecule, C[C@@H]1CCCN1CCc1ccc(-c2ccc(S(=O)(=O)CCO)cc2)cc1 : half-life is 3.2
